# Test Target: UniProt:Q9NR96
# Assay Overview: Antagonist activity at R848 stimulated TRL9 in HEK-Blue hTLR9 cells assessed as inhibition of NF kappa B/Ap-1 activation measured after 20 hrs by SEAP reporter assay
# Type: cell-based
# maps each entry to its IC50

Molecule	IC50
COC12CNCC1CN(c1ccc3c(c1)CN1[C@H](C)CN(c4ccc(C#N)c5ncccc45)C[C@H]31)C2 (some centres not stated)	< 32 nM

Consider the record given below.
Tell me the measured IC50 of Cc1cc(N2CCOC3(CN(C[C@H]4CN(c5ccc(C#N)c6ncccc56)C[C@@H](C)O4)C3)C2)cc(C)n1 , please. < 32 nM

====

# Test Target: Cyclic GMP-AMP synthase (Homo sapiens)
# Sequence (Q8N884 whole entry, the tested form may be a part): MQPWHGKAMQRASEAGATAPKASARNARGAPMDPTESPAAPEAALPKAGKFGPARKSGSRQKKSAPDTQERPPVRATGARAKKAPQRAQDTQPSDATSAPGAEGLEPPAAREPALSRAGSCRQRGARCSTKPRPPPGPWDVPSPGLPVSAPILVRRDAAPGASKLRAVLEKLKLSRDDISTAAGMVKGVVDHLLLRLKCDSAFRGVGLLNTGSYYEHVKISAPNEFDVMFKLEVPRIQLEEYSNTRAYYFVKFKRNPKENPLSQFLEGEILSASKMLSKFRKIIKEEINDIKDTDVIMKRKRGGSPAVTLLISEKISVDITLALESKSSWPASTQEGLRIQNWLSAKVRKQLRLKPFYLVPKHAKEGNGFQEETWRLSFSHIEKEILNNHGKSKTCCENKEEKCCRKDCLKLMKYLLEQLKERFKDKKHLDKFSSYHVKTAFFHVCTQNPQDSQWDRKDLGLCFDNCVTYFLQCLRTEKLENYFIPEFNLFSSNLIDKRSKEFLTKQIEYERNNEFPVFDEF
# Assay Overview: Inhibition of N-terminal 6XHis-SUMO2 fused full length human cGAS (1 to 522 residues) expressed in […] incubated for 20 mins in presence of ATP by luminescence based analysis
Value Type: IC50 (µM)

(1) O=C(O)c1n[nH]c(-n2cnnc2)n1
(2) O=C(O)c1cccc(NC(=O)c2n[nH]c(-n3cnnc3)n2)c1
Lowest IC50? choose 1 or 2 To answer, give the label that identifies your chosen option. 2
(2: 13.1 µM, 1: 29.9 µM)

====

# Test Target: Stimulator of interferon genes protein (Homo sapiens)
# Sequence (Q86WV6 whole entry): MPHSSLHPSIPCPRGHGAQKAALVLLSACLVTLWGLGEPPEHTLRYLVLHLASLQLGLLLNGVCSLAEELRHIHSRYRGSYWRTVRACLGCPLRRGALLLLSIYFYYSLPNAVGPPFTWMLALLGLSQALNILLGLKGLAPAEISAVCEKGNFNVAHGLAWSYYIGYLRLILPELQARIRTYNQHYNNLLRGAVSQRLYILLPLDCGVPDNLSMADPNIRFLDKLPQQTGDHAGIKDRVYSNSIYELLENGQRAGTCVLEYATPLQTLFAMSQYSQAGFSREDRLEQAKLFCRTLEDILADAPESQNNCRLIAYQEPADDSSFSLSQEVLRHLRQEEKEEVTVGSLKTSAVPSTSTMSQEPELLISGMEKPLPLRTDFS
Value Type: pKd
Give only the number. pKd is defined as minus log10 of concentration in molar units.

Return pKd measured with Stimulator of interferon genes protein (Homo sapiens) given this molecule: CC[C@@H]1CC(=O)[C@@H]2[C@H](Cl)[C@H](Cl)CN2C(=O)[C@H](CC)NC(=O)C[C@H](c2ccccc2)NC(=O)[C@H](CO)NC1=O 7.28

====

# Test Target: Cyclic GMP-AMP synthase (Homo sapiens)
# Assay Overview: Inhibition of full-length human cGAS by fluorescence polarization
Value Type: IC50

Tell me the measured IC50 of Cc1[nH]n2c(-c3ccccc3)c(C#N)nc2c(=O)c1-c1cccc(Cl)c1 , please. < 1000 nM

====

# Test Target: Toll-like receptor 9 (Homo sapiens)
# Sequence (Q9NR96 whole entry): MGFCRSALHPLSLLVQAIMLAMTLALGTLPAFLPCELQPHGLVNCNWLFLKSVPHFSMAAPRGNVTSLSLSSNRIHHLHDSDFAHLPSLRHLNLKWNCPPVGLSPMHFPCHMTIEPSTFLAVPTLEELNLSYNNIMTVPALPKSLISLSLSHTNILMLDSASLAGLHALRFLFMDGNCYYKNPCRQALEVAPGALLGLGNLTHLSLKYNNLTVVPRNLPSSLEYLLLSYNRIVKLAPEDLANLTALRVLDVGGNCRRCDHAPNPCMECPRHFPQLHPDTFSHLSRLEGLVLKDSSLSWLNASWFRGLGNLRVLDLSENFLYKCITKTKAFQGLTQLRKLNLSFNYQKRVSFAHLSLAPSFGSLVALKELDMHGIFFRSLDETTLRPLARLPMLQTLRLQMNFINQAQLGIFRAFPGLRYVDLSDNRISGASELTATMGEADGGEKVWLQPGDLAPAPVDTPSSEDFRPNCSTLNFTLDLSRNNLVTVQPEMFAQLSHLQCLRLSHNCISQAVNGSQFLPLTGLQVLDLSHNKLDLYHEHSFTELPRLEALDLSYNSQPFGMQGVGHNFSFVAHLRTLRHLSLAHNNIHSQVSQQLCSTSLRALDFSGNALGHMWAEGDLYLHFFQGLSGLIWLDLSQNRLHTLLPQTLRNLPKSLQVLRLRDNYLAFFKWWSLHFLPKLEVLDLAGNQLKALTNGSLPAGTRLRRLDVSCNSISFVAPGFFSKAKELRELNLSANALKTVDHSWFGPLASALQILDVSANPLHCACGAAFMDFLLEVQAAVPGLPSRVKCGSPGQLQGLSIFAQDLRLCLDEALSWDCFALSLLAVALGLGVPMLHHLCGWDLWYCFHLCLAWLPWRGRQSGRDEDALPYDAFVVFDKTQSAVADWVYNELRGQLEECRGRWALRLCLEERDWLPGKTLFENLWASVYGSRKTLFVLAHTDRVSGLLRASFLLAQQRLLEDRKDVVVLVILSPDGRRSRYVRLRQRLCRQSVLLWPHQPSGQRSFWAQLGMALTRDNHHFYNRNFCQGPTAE
# Assay Overview: Antagonist activity at TLR9 (unknown origin)
Value Type: pIC50
Give only the number. pIC50 is defined as minus log10 of concentration in molar units.

Return pIC50 measured with Toll-like receptor 9 (Homo sapiens) given this compound: CNCc1ccc(C(=O)Nc2nc(N3CCN(C4CCCC4)CC3)c3ncn(CCCN4CCCC4)c3n2)cc1 8.30

Sourced from ChEMBL document CHEMBL5096179
